experimental-system: African green monkey C5 (African green monkey)
experiment-notes: cell-based or functional assay
outcome-measure: IC50, inhibition of CDC of Daudi cells, 1.66% African Green monkey serum (nM)
Give bare numbers, in nM.

binder	recorded-measurement
H4H12159P (antibody, human IgG4, V domains shown, H4H: human IgG4 Fc with S108P hinge mutation) VH: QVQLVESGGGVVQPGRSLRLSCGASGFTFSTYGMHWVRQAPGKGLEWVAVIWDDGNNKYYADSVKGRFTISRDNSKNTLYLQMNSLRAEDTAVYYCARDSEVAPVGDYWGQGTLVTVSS VL: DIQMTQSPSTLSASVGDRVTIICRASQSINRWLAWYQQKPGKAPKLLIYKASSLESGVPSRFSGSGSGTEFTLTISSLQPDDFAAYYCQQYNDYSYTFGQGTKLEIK	3.4

Look up IC50, inhibition of CDC of Daudi cells, 1.66% African Green monkey serum for the entries below, preserving their order.
1. H4H12164P (antibody, human IgG4, V domains shown, H4H: human IgG4 Fc with S108P hinge mutation) VH: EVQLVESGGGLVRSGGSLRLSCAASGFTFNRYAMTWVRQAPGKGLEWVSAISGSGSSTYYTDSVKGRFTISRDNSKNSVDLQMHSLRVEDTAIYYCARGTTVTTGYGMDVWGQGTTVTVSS VL: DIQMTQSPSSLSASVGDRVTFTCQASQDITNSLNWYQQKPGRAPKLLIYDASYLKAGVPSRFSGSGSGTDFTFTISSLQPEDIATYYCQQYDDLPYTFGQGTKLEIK
2. H4H12170P (antibody, human IgG4, V domains shown, H4H: human IgG4 Fc with S108P hinge mutation) VH: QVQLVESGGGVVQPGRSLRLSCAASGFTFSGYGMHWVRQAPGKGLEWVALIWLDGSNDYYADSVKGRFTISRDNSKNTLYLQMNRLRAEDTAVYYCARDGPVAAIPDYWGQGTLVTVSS VL: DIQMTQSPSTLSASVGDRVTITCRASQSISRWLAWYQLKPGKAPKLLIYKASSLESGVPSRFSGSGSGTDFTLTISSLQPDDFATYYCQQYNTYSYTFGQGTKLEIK
3. H4H11686N (antibody, human IgG4, V domains shown, tested with H4H prefix (human IgG4 Fc with S108P hinge mutation); also called H2M11686N) VH: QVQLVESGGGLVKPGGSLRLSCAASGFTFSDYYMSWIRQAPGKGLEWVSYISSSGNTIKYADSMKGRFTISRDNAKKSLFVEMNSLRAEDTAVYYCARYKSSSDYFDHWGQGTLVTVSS VL: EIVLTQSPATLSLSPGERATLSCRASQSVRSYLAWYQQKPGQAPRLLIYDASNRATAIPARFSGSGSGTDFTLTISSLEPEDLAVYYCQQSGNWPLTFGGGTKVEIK
4. H4H11683N (antibody, human IgG4, V domains shown, tested with H4H prefix (human IgG4 Fc with S108P hinge mutation); variable regions follow the numerical identifier; also called H2M11683N) VH: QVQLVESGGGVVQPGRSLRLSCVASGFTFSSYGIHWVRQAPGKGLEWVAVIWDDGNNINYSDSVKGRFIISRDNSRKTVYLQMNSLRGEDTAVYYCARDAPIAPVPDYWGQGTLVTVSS VL: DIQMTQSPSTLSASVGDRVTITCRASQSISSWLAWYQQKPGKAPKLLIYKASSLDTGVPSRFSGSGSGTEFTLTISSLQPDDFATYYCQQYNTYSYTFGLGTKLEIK
5. H4H12161P (antibody, human IgG4, V domains shown, H4H: human IgG4 Fc with S108P hinge mutation) VH: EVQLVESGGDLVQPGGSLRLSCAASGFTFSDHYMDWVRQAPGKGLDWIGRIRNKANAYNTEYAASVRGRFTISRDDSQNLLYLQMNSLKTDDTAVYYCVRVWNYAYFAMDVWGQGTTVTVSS VL: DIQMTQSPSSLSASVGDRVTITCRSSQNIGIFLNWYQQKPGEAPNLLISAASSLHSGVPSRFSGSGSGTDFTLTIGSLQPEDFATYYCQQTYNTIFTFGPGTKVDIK

1: 5.8; 2: 3.7; 3: 4.4; 4: 4; 5: 2.6

Every entry's value here was drawn from patent US20170355757A1.
